Where do the numbers come from? From patent US12391667B2.

# measured target: ATX in human whole blood (Homo sapiens (Human))
# assay summary: Assay B: Whole-Blood ATX assay
# Type: biochemical
# applied conditions: 1 h at 37° C., formation of 18:2 LPA
measured parameter: IC50 (nM)

CC(=O)N1CCN(c2ccc(C3(Nc4ccc(OCc5ccc(C(F)F)nc5)nn4)CC3)cc2)CC1 ... 4.3
CC(=O)N(C)C1CCN(c2ccc(C3(Nc4ccc(OCc5ccc(C(F)F)nc5)nn4)CC3)cc2)C1 (stereo not drawn) ... 7

[A] CC(=O)N1CCN(c2ccc(C(C)Nc3ccc(OCc4ccc(C(F)(F)F)nc4)nn3)cc2)CC1 (stereo not drawn)
[B] CC(=O)N1CCN(c2ccc([C@H](C)Nc3ccc(OCc4ccc(C(F)(F)F)nc4)nn3)cc2)CC1
[C] CC(=O)N1CCN(c2ccc(C3(Nc4ccc(OCc5ccc(C(F)(F)F)nc5)nn4)CC3)cc2)CC1
[D] CC(=O)N1CCN(c2ccc([C@@H](CO)Nc3ccc(OCc4ccc(C(F)(F)F)nc4)nn3)cc2)CC1
Output the entries ranked by IC50 from maximum down to minimum. Rank the items, then write their labels in that order.
B, D, C, A
